Assay: viability gain of MRP-1-high H69AR cells under doxorubicin, pilot screen, MRP-1 activator project, CellTiter-Glo, duplicate (AID 807);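 also: compound pretreatment 18-22 h then 72 h combined with doxorubicin; 0% = doxorubicin alone and 100% = vehicle without doxorubicin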
Conditions: H69AR viability with doxorubicin, CellTiter-Glo luminescence; at 10 µM; stronger effect = higher value
property_label: viability increase (%)
Kindly provide the numeric value in % only, without the unit symbol.

Provide one value: measured viability increase of CN1CCN(Cc2nc3c(c(=O)n(C)c(=O)n3C)n2CCc2ccccc2)CC1
-1.67

Provide one value: measured viability increase of O=C(NC1CCCCC1)N1CCC(n2c(=O)[nH]c3ccccc32)CC1
1.07

Provide one value: measured viability increase of COc1cccc(C(c2sc3ncnn3c2O)N2CC(C)OC(C)C2)c1 (stereo unspecified)
2.62

Provide one value: measured viability increase of COc1ccc(OC)c2sc(NC(=O)C3=COCCO3)nc12
-2.76

Provide one value: measured viability increase of CCCCOc1ccc(/C(N)=N/O)cc1
-5.85

Provide one value: measured viability increase of Fc1ccc(C2CC(c3ccccc3)Nc3ncnn32)cc1 (stereo unspecified)
-0.63

---

Quick list: inhibition per entry.
Assay: growth suppression of yeast trafficking mutant, preliminary HTS, modulators of trafficking downstream of Golgi apparatus project, 1536-format plate, OD 615 nm (AID 637)
Settings: yeast transport mutant growth, absorbance 615 nm, 18 h; stronger effect = higher value
Kindly provide the numeric value in % only, without the unit symbol.

Cc1ccccc1-n1c(=O)c2ccccc2n2nnnc12: -15.6
COc1ccc(C2C(C(=O)NCCN3CCOCC3)c3ccccc3C(=O)N2C2CCCCC2)cc1 (stereo unspecified): 0

Please look at the following compound next.
Provide one value: measured inhibition of CCOC(=O)Cc1nnc2c(Nc3ccc(C)cc3)nc3nonc3n12
7.7

---

Target: Receptor tyrosine-protein kinase erbB-2 (Homo sapiens) (UniProt P04626)
Sequence (P04626 whole entry, looked up): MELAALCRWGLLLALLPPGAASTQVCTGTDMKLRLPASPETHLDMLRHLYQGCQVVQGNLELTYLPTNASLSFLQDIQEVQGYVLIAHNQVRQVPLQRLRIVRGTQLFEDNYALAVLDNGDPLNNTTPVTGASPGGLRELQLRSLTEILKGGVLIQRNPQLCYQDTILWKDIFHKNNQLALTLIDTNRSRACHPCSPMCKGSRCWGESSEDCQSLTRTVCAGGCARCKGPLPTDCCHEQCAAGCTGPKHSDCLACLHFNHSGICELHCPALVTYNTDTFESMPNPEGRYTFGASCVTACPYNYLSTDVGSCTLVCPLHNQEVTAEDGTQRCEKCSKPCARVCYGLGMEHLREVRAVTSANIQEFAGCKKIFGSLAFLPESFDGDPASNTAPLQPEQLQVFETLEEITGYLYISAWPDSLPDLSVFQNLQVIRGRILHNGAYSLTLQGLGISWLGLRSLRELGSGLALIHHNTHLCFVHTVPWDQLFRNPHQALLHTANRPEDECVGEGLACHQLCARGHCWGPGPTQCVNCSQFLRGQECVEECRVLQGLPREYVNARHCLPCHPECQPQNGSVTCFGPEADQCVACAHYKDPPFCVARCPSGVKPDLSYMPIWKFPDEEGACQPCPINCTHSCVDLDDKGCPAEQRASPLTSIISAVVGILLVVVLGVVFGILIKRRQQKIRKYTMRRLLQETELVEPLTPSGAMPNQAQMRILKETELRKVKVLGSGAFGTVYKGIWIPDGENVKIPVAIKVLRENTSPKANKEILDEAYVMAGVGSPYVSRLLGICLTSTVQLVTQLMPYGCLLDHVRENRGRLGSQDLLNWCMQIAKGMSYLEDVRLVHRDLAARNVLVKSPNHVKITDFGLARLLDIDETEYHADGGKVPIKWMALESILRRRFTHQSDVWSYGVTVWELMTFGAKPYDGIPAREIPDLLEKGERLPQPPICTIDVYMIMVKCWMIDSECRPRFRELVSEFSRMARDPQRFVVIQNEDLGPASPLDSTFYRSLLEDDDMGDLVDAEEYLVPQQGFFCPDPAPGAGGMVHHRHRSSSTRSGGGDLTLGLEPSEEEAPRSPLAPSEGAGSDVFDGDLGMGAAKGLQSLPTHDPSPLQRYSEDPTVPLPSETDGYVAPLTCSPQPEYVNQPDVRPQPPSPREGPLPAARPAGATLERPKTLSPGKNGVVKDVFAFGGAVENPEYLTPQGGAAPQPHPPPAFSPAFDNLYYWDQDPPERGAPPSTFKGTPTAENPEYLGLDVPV
Experiment: reducers of endogenous Her2 protein level, primary screen, SKBR3 breast tumor cells, AlphaScreen, ATP viability (AID 461);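 also: lower value means less Her2 protein in the cells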
Conditions: 18-24 h, at 10 µM, stronger effect = lower value
Quick list: Her2 level per entry.
Kindly provide the numeric value in % only, without the unit symbol.

CCOC(=O)C1CCN(C(=O)CSc2cc(=O)n(CC)c3ccccc23)CC1: 99.5
O=C1CCCC2=C1C(c1ccc(Br)cc1)c1c([nH]c(=S)[nH]c1=O)N2 (stereo unspecified): 112
CCOC(=O)CNC(=O)C(Cc1ccccc1)NS(=O)(=O)c1ccc2c(c1)CCC(=O)N2 (stereo unspecified): 114
COc1ccc(N2CCN(Cc3nc4ccccc4c(=O)[nH]3)CC2)cc1: 98
CCN(Cc1cc2cc(OC)ccc2[nH]c1=O)C(=O)Cc1ccc(OC)cc1: 87.5
Cn1cccc1Cc1nnc(SCC(=O)Nc2ccc(F)cc2)n1-c1ccc(F)cc1: 93

Provide one value: measured Her2 level of Cc1cc(C(=O)NCc2cccnc2)n(-c2ccccc2)n1
97

Provide one value: measured Her2 level of CNC(=O)c1nnn(Cc2ccccc2)c1NC(C)=O
105

Provide one value: measured Her2 level of CCCn1c2c(c(O)c(C(=O)NC)c1=O)CCCC2
95

Provide one value: measured Her2 level of CC(C)COc1nc2ccccc2nc1C(C#N)C(=O)NC1CCCCC1 (stereo unspecified)
105

Provide one value: measured Her2 level of O=C(COC(=O)CSc1nnc(-c2ccc(Cl)cc2)o1)NCc1ccc2c(c1)OCO2
84

---

Quick list: inhibition per entry.
Assay: 384-well plate pilot, post-Golgi transport modulator project, inhibition of yeast transport mutant growth (AID 636)
Settings: absorbance 615 nm, about 18 h, stronger effect = higher value
Kindly provide the numeric value in % only, without the unit symbol.

COc1cccc(-c2nc(CSCC(=O)N3CCc4ccccc43)c(C)o2)c1: 2.63
CCCC(=O)N1c2ccccc2NC2=C(C(=O)CCC2)C1c1ccc(F)cc1 (stereo unspecified): -0.14
CCOC(=O)C1=C(C)Nc2nnnn2C1c1c[nH]c2ccccc12 (stereo unspecified): -2.93

Provide one value: measured inhibition of N#Cc1ccc(CSc2nnc(-c3cnccn3)o2)cc1
-0.67

Provide one value: measured inhibition of Cc1coc2cc3oc(=O)c4c(c3cc12)CCC4
-2.7

Provide one value: measured inhibition of COC(=O)c1ccccc1NC(=O)c1noc2c1CCC2
-7.37

Provide one value: measured inhibition of CCOC(=O)N1CCN(C(=O)c2ccc3c(=O)n(CCc4ccccc4)c(=O)[nH]c3c2)CC1
-1.49

Provide one value: measured inhibition of O=C(Nc1ncc(Br)s1)C1CCCN1S(=O)(=O)c1cccc2cccnc12 (stereo unspecified)
-0.38

Provide one value: measured inhibition of Cc1ccc(S(=O)(=O)N(CC(=O)NCc2ccco2)Cc2ccccc2F)cc1
-2.67

Provide one value: measured inhibition of Cc1ccc(-c2noc(CCC(=O)NC3CCCc4ccccc43)n2)cc1 (stereo unspecified)
-4.87

Provide one value: measured inhibition of CCOC(=O)N1CCN(CC(=O)c2c(C)[nH]c3ccccc23)CC1
-5.41

Provide one value: measured inhibition of CCOC(=O)C1CCCN(C(=O)c2ccc3c(=O)n(CCOC)c(=S)[nH]c3c2)C1 (stereo unspecified)
-4.8

---

Test: OD615 S. cerevisiae growth inhibition, permissive medium, pilot counter-assay, permissive growth control for S. cerevisiae lifespan shortening project (AID 705)
Details: OD615, 24 h, at 10 µM, stronger effect = higher value
Activity calls are given as the source filed them.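 How the source made its calls: active means growth inhibition above 25% in both replicates, a cutoff set 3 SD above the mean; inconclusive means above 25% in only one replicate; inactive means the rest.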
property_label: growth inhibition

Example results:
O=C(Cn1c(=O)[nH]c2ccsc2c1=O)NC1CCCCC1: -3.32% (inactive)
C(=C\c1ccccc1)/CSc1nnc(-c2cccnc2)o1: 8.71% (inactive)
O=C(C1CC1)N1CCc2cc(Br)cc(S(=O)(=O)N3CCCCCC3)c21: -4% (inactive)

Provide one value: measured growth inhibition of c1ccc(-c2csc3ncn4cnnc4c23)cc1
-7.59% (inactive)

Provide one value: measured growth inhibition of Cc1ccc(-c2nc(CS(=O)CC(=O)NCCC(C)C)c(C)o2)cc1 (stereo unspecified)
-6.7% (inactive)

Provide one value: measured growth inhibition of Cn1nnnc1SCC(=O)c1ccco1
-7.91% (inactive)

---

Experiment: reversal of MRP1-mediated doxorubicin resistance, pilot screen, H69AR cells, doxorubicin co-treatment (AID 601)
Settings: H69AR cells + 2 uM doxorubicin, CellTiter-Glo, 72 h; measured here: viability with 2 uM doxorubicin; at 10 µM; stronger effect = lower value
Quick list: viability per entry.
Kindly provide the numeric value in % only, without the unit symbol.

CC(C)COc1nc2ccccc2nc1C(C#N)C(=O)NC1CCCCC1 (stereo not drawn): 105
CCC1(C)Cc2c(C#N)c(N)n(N)c(=S)c2CO1 (stereo not drawn): 89.3
O=C(COC(=O)c1cc(-c2ccco2)nc2ccccc12)NCc1ccc2c(c1)OCO2: 85.5
O=C(CN(C(=O)CCC(=O)Nc1nccs1)c1ccccc1F)NCC1CCCO1 (stereo not drawn): 90.4
NC(=O)c1ccccc1NC(=O)CCCN1C(=O)CCC1=O: 85
Cc1ccsc1C(C(=O)NC1CCCCC1)N(C(=O)Cc1cccs1)C1CC1 (stereo not drawn): 77.1
CCCN1CCN(C(=O)Cn2c(=O)oc3cc(S(=O)(=O)NCc4ccccc4)ccc32)CC1: 87.5
COc1ccc(CC(=O)Nc2c3c(nn2-c2cccc(Cl)c2)CS(=O)(=O)C3)cc1: 89.1
O=C(O)CCC(=O)Nc1ccc(S(=O)(=O)Nc2nccs2)cc1: 96.9
CCOc1ccc2ccccc2c1/C=N/n1cncn1: 103

Provide one value: measured viability of COC(=O)c1ccc(C2NC(C(=O)O)CS2)cc1 (stereo not drawn)
97.3

---

Quick list: viability per entry.
Assay: reversal of MRP1-mediated doxorubicin resistance, pilot screen, H69AR cells, doxorubicin co-treatment (AID 601)
Details: H69AR cells, CellTiter-Glo, 72 h; compound alone cytotoxicity; at 10 µM
Kindly provide the numeric value in % only, without the unit symbol.

Example results:
COc1ccc(NC(=O)CS(=O)CC(=O)Nc2cc(Cl)ccc2OC)cc1 (stereo not drawn): 90.9
Cc1cccc(N2C(=O)CC(N3CCN(C(=O)c4ccccc4)CC3)C2=O)c1 (stereo not drawn): 96.3
COc1ccc2c(c1)Sc1ccccc1N2CCN(C)C: 68.8

Provide one value: measured viability of O=C(COC(=O)C1=COCCO1)Nc1ccccc1Oc1ccccc1
93.8

Provide one value: measured viability of CC(=O)O[C@H]1CSC[C@H]1NC(=O)c1ccccc1
99.8

Provide one value: measured viability of O=C(CSc1nnc(Cc2ccccc2)n1C1CCCCC1)N1CCOCC1
95.6

Provide one value: measured viability of CCC1(NC(C)=O)CC2CC1CC2NC(C)=O (stereo not drawn)
100

Provide one value: measured viability of Cc1cc(=O)n(CC(C)C)c(O)c1C#N
104

Provide one value: measured viability of CCOC(=O)c1ccc(NC(=O)CCNc2c(N3CCCC3)c(=O)c2=O)cc1
98.3

Provide one value: measured viability of CCC(C)(C(=O)NC1CCCC1)N(C(=O)c1cnccn1)c1c(C)n(C)n(-c2ccccc2)c1=O (stereo not drawn)
91.4

Provide one value: measured viability of COCC(=O)N(c1ccc(C(C)C)cc1)C1C=CS(=O)(=O)C1 (stereo not drawn)
89.6

Provide one value: measured viability of CCSC1=NCN(CCCC(=O)O)CN1
99.9

Provide one value: measured viability of COc1ccc(OC)c(C(=O)c2nc3c(n2O)CCCCC3)c1
93.2
